Record form. Attribute: IC50. Fill in for each entry.
Target under test: P2X purinoceptor 7 (Homo sapiens, UniProt Q99572)
Sequence (Q99572 whole entry): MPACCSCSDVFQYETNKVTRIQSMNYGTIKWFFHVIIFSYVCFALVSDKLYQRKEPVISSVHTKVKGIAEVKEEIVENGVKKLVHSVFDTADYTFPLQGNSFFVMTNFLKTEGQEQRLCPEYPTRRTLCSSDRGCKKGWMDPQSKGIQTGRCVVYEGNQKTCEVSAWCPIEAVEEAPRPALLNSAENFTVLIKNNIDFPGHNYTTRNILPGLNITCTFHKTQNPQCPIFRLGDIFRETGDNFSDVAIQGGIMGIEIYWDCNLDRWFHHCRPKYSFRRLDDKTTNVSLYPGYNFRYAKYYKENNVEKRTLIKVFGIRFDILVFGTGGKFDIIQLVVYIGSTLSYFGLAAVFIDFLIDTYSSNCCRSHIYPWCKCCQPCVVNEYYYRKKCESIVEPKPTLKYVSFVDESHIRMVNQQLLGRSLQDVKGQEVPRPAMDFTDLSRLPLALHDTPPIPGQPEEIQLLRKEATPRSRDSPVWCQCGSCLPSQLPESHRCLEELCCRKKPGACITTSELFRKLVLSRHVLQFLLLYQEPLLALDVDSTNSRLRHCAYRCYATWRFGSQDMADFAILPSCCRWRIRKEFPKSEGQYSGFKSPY
Test description: Antagonist activity at human cloned P2X7 receptor expressed in HEK293 cells assessed as inhibition of calcium flux by FLIPR assay
# unit: µM | format: bare number

Q) // query IC50 value for entry COc1ccc(CCCC(=O)NC(N/C(=N/C#N)Nc2cccnc2C)C(C)(C)C)cc1 (centres undefined)
A) 0.0501

Q) Now the molecule COc1ccc(CC(=O)NC(NC(=NC#N)Nc2ccccc2C)C(C)(C)C)cc1OC (stereo in doubt; 13)
A) 0.126

Q) Now the molecule CSc1ccc(CC(=O)NC(N=C(NC#N)Nc2cccc3ncccc23)C(C)(C)C)cc1 (centres undefined)
A) 0.01

Q) Now the molecule CC(C)(C)C(N=C(NC#N)Nc1cccc2ncccc12)NC(=O)Cc1ccc2c(c1)OCCO2 (centres undefined)
A) 0.01

Q) Now the molecule COc1ccc(C(=O)NC(N=C(NC#N)Nc2ccccc2C)C(C)(C)C)cc1 (centres undefined)
A) 7.94

Q) Now the molecule Cc1ccccc1NC(=NC(NC(=O)CCCc1ccccc1)C(C)(C)C)NC#N (centres undefined)
A) 0.0794

Q) Now the molecule COc1ccc(CC(=O)NC(NC(=NC#N)Nc2cccnc2OC)C(C)(Cl)Cl)cc1OC (centres undefined)
A) 0.0316

Q) Now the molecule COc1cc(CC(=O)NC(N/C(=N/C#N)Nc2ccccc2C)C(C)(C)C)cc(OC)c1 (centres undefined)
A) 0.251

Q) Now the molecule COc1ccc(N/C(=N\C#N)NC(NC(=O)Cc2ccc(OC)c(OC)c2)C(C)(C)C)c(OC)n1 (centres undefined)
A) 0.0316

Q) Now the molecule COc1ccc(CC(=O)NC(N/C(=N/C#N)Nc2ccccc2C)C(C)(C)C)cc1 (centres undefined)
A) 0.0631

Q) Now the molecule COc1ccc(CC(=O)NC(N=C(NC#N)Nc2cccc(F)c2)C(C)(C)C)cc1OC (centres undefined)
A) 3.16

Q) Now the molecule COc1cc(OC)cc(C(=O)NC(NC(=NC#N)Nc2cccnc2OC)C(C)(Cl)Cl)c1 (centres undefined)
A) 0.0501

Q) Now the molecule CC(C)(C)C(NC(=O)Cc1ccc(C#N)cc1)N/C(=N/C#N)Nc1cccc2ncccc12 (centres undefined)
A) 0.0398

Q) Now the molecule COc1ccccc1NC(=NC(NC(=O)Cc1ccc(OC)c(OC)c1)C(C)(C)C)NC#N (centres undefined)
A) 0.158

Q) Now the molecule Cc1ccccc1N/C(=N\C#N)NC(NC(=O)Cc1ccc2c(c1)OCO2)C(C)(C)C (centres undefined)
A) 0.0501

Q) Now the molecule CC(C)(C)C(NC(=O)CCCc1cccnc1)N/C(=N/C#N)Nc1cccc2ncccc12 (centres undefined)
A) 0.1

Q) Now the molecule COc1cc(OC)cc(C(=O)NC(N=C(NC#N)Nc2ccccc2C)C(C)(C)C)c1 (centres undefined)
A) 2.51

Q) Now the molecule COc1ccc(CC(=O)NC(N=C(NC#N)Nc2cc(F)cc(F)c2)C(C)(C)C)cc1OC (centres undefined)
A) 0.398

Q) Now the molecule COc1cc(OC)cc(C(=O)NC(N/C(=N/C#N)Nc2cccnc2C)C(C)(Cl)Cl)c1 (centres undefined)
A) 0.2
